system: RXF 393; experiment: NCI tumour cell line growth inhibition, 48 h
Activity calls are given as the source filed them. Rule as the data show it: active = GI50 up to about 1.1 µM and inactive = higher.
outcome-measure: GI50

Reference set, count: 3
CCOCCOC(=O)C1CCC(=O)N1CN(C(C)=O)c1cc(OC)ccc1OC (stereo not given): > 100 µM (inactive)
O=C(O)/C=C\C(=O)Nc1ccc2c(c1)-c1ccccc1C2: > 100 µM (inactive)
O=C1OC(c2ccccc2)=N/C1=C/NC(Cc1c[nH]cn1)C(=O)O (stereo not given): > 100 µM (inactive)

Task: Query (compound): COC12C=C(C)C(CC1)CC2C(=O)O (stereo not given) ; field requested: GI50
Result: > 100 µM (inactive)

Task: Bench note: what GI50 did O=C1CC(c2ccccc2)n2c(nc3ccccc32)N1 (stereo not given) show?
Result: 21 µM (inactive)

Task: Quick check: GI50 of O=c1c2cc(-c3ccccc3)sc2nc2n1N=C(c1ccc(Cl)cc1)CS2 ?
Result: > 100 µM (inactive)

Task: So what's the measured GI50 for this one? CCCCCCC(O)C(O)CCC(O)C1CCC(CCCCC(O)CC2=CC(C)OC2=O)O1 (stereo not given)
Result: 5.87 µM (inactive)

Task: Looking for the measured GI50 of O=C(O/N=C1/CCC/C1=C\c1ccccc1)c1ccc(Cl)cc1 , can you help?
Result: 18 µM (inactive)

Task: Look up GI50: Cc1cc(=O)cc2sc3c(C)cccc3nc1-2
Result: 35.4 µM (inactive)

Task: Entry COCCN(C(=O)c1ccccc1)C1CCC2(SCCS2)c2[nH]c3ccccc3c21 (stereo not given) has what GI50?
Result: 20.7 µM (inactive)

Data credit: ChEMBL document CHEMBL1201862
